System: SF-539 CNS
assay.notes: NCI tumour cell line growth inhibition, 48 h; in the data active means GI50 below about 0.43 µM; inactive means the rest
Write down one outcome, taken from Y (active), N (inactive)

These recorded examples may help you get a feel for the data.
                            molecule_smiles  classification
0  Cc1sc2c(c1C)C(c1ccc(Cl)cc1)=N[C@@H](CC(=O)Nc1ccc(O)cc1)c1nnc(C)n1-2               N
1  CCNC(=O)CCCCC(=O)c1c(C)[nH]c(/C=C2\N=C(c3ccc[nH]3)C=C2OC)c1C               N
2  O=C(Nn1c2c(sc1=NC1CC1)C(=O)c1ccccc1C2=O)c1cc2ccc1CCc1ccc(cc1)CC2               N

From here, focus on the item given below.
Query: So what was the verdict on O=C(Nc1ccc([N+](=O)[O-])cc1)c1cc2ccccc2cc1O in this test?
Result: Y

###

TGI values by entry
Tested on: UO-31 renal
assay.notes: NCI tumour cell line growth inhibition, 48 h

>>> df
                                   compound  assay_system  quantity_kind  observed_value
0                       Cc1cc(C)c(N)c(C)c1N   UO-31 renal            TGI        > 100 µM
1  O=C(Cc1ccccc1)NN1C(=O)C(Cl)C1c1ccccc1 (stereo unspecified)   UO-31 renal            TGI        > 100 µM
2  O=c1[nH]c2cc([N+](=O)[O-])c(N(CCO)CCO)c([N+](=O)[O-])c2[nH]1   UO-31 renal            TGI        > 100 µM

Query: Fill in reported TGI for this entry: Cc1cc(S(=O)(=O)Nc2nc3ccsc3c(=O)n2Cc2ccccc2)c(S)cc1Cl
Result: > 100 µM

Query: Fill in reported TGI for this entry: COc1ccc(Cn2c3c(c4c(O)cccc42)C(=O)c2ccccc2-3)cc1
Result: 67.7 µM

Query: Fill in reported TGI for this entry: COc1cc(C(=O)/C=C/c2c(-c3cccs3)nc3ccccn23)cc(OC)c1OC
Result: 3.17 µM

Query: Fill in reported TGI for this entry: C=CC[C@@]1(C#N)C[C@H](C[C@]2(C#N)C[C@H](CCl)OC(C)(C)O2)OC(C)(C)O1
Result: > 100 µM

###

Tested on: SR leukemia
assay.notes: NCI tumour cell line growth inhibition, 48 h
log10 TGI values by entry
Base-10 log of TGI, unit µM.

>>> df
                                   compound  quantity_kind  observed_value
0  COc1ccc(CC(C#N)c2cc(OC)c(OC)c(OC)c2)cc1 (stereo not drawn)      log10 TGI            0.33
1  NCCCn1c2c(c3ccc([N+](=O)[O-])cc3c1=O)C(=O)c1cc(Cl)ccc1-2      log10 TGI           -1.49
2  O=C1C(Nc2cccc(O)c2)=C(Sc2ccc(Cl)cc2)C(=O)N1Cc1ccccc1      log10 TGI            1.15
3  COc1ccc(Cn2cc3c(c2-c2ccccc2)CCc2cncnc2-3)cc1      log10 TGI            0.83
4  O=C1/C(=C/c2ccc(C(F)(F)F)cc2)COc2ccc(O)cc21      log10 TGI            1.03

Query: Fill in reported log10 TGI for this entry: CCCCCCCCCCC(CN(CC)CC)C(O)c1ccccc1 (stereo not drawn)
Result: 0.79

Query: Fill in reported log10 TGI for this entry: OCCCCC#Cc1ccccc1C#Cc1cccs1
Result: 1.16

Query: Fill in reported log10 TGI for this entry: CCOC(=S)SC/C(=N\OC(C)(C)OC)c1ccccc1
Result: 1.56

Query: Fill in reported log10 TGI for this entry: COc1ccc(Cn2c3c(c4c(O)cccc42)C(=O)c2ccccc2-3)cc1
Result: 1.48

Query: Fill in reported log10 TGI for this entry: COC(=O)C1(Cc2ccc3c(c2)CCC3)Cc2cc3c(cc2C1=O)CCC3 (stereo not drawn)
Result: 1.52

Query: Fill in reported log10 TGI for this entry: CCN1CCN(c2cc(C)nc(NCc3cc(Nc4ccnc5cc(Cl)ccc45)ccc3F)n2)CC1
Result: 0.97

###

System: MALME-3M melanoma
assay.notes: NCI tumour cell line growth inhibition, 48 h
quantity.kind: TGI

Query: Fill in reported TGI for this entry: COc1ccc(-c2cc3nccn3c(Nc3ncccc3C(N)=O)n2)cc1OC
Result: > 100 µM

Query: Fill in reported TGI for this entry: CCOC(=O)CC(=Nc1cc(C)on1)N(CC)CC
Result: > 100 µM

Query: Fill in reported TGI for this entry: CC(=O)NNc1nc(C)c(C(/C=C/c2ccc(Cl)cc2)=N/NC(=S)NN)s1
Result: > 100 µM

Query: Fill in reported TGI for this entry: COc1cc(C(=O)/C=C/c2c(-c3cccs3)nc3ccccn23)cc(OC)c1OC
Result: 21.7 µM

Query: Fill in reported TGI for this entry: O=S(=O)(Nc1nc(-c2cc(O)c(O)c(O)c2)cs1)c1ccc(Cl)cc1Cl
Result: > 100 µM

Query: Fill in reported TGI for this entry: Cc1ccc(-c2nc3n(c2/C=N\N=C(N)N)CCS3)cc1
Result: 31.2 µM

Query: Fill in reported TGI for this entry: CCOC(=O)c1[nH]n(-c2ccccc2)c(=O)c1C=NC(=S)C(N)=S
Result: > 100 µM

Query: Fill in reported TGI for this entry: CCC(c1nc2ccccc2c(=O)n1NC(=O)C(C)(C)C)C1(O)CCCCC1 (stereo not given)
Result: > 100 µM

Query: Fill in reported TGI for this entry: COc1ccc2c(c1)Cc1c-2[nH]c2cc3c(cc2c1=O)OCO3
Result: 42.8 µM

Query: Fill in reported TGI for this entry: CNC(=O)C(NC(=O)[C@H](CC(C)C)NC(=O)[C@@H](S)CCN1C(=O)N(C)C(C)(C)C1=O)C(C)(C)C (stereo not given in full)
Result: > 100 µM

###

TGI values by entry
Tested on: DLD-1 colon
assay.notes: NCI tumour cell line growth inhibition, 48 h

Some solved cases for reference:
>>> print(df.to_string())
                                   compound  observed_value
0  O=C(Nc1ccccc1)OCc1nc2c([nH]1)C(=O)C=CC2=O        > 100 µM
1           CCOC(=O)CC(=Nc1cc(C)on1)N(CC)CC        > 100 µM
2  C/C(CC(=O)Nc1ccc(NC(=O)/C(C)=N/NS(=O)(=O)c2ccc(C)cc2)cc1)=N\NS(=O)(=O)c1ccc(C)cc1        > 100 µM
3  CCC[CH2][Sn]1([CH2]CCC)[O]CC([CH2][Sn]([c]2ccccc2)([c]2ccccc2)[c]2ccccc2)[O]1 (stereo not given)         18.4 µM
4  COc1ccc(CC(C#N)c2cc(OC)c(OC)c(OC)c2)cc1 (stereo not given)        > 100 µM

Query: Fill in reported TGI for this entry: CCOC(=O)CCc1c(C)c2c(O)cc(O)cc2oc1=O
Result: > 100 µM

Query: Fill in reported TGI for this entry: CN(Cc1ccccc1)c1nc(=[N+](C)C)ss1
Result: > 100 µM

Query: Fill in reported TGI for this entry: c1ccc([P+](CCC[P+](c2ccccc2)(c2ccccc2)c2ccccc2)(c2ccccc2)c2ccccc2)cc1
Result: > 100 µM

Query: Fill in reported TGI for this entry: CCCCCCCCCCCCOC(=S)NC
Result: 34.3 µM

Query: Fill in reported TGI for this entry: Nc1nc(SCc2ccccc2[N+](=O)[O-])c2[nH]cnc2n1
Result: > 100 µM

###

Tested on: RXF 393 renal
assay.notes: NCI tumour cell line growth inhibition, 48 h
Parameter threshold = 40 µM. Response is Yes when TGI meets or exceeds it, else No.

Query: Tell me whether TGI is at least 40 µM here: O=C1CSC(c2c(O)ccc3ccccc23)N1n1c(=S)[nH]nc(/C=C/c2c(O)ccc3ccccc23)c1=O (stereo unspecified)
Result: No

Query: Tell me whether TGI is at least 40 µM here: CC1=NN(c2cccc(Cl)c2)C2(C1)SCC(=O)N2c1nc2ccccc2s1 (stereo unspecified)
Result: Yes

Query: Tell me whether TGI is at least 40 µM here: Cc1cc(S(=O)(=O)Nc2nc3ccsc3c(=O)n2Cc2ccccc2)c(S)cc1Cl
Result: Yes

###

Tested on: NCI-H226 lung
assay.notes: NCI tumour cell line growth inhibition, 48 h; in the data active means GI50 below about 0.43 µM; inactive means the rest
Write down one outcome, taken from active, inactive

These recorded examples may help you get a feel for the data.
                                   compound  classification
0  NCCCn1c2c(c3ccc([N+](=O)[O-])cc3c1=O)C(=O)c1cc(Cl)ccc1-2          active
1  CN1CCN(c2ccc([N+](=O)[O-])c3no[n+]([O-])c23)CC1        inactive
2  CC(C)(C)n1cc(-c2ccnc(NCCCNS(=O)(=O)c3ccc(Cl)cc3)c2)c(-c2cccc(O)c2)n1        inactive

Query: So what was the verdict on CC1(C)CC(O)CCCCCCOc2c(CN)cccc2NC(=O)c2nc(cnc2N)-c2ccc(cc2)S1(=O)=O (stereo unspecified) in this test?
Result: inactive

Query: So what was the verdict on CCN1CCN(c2cc(C)nc(NCc3cc(Nc4ccnc5cc(Cl)ccc45)ccc3F)n2)CC1 in this test?
Result: inactive

Query: So what was the verdict on CCC[CH2][Sn]1([CH2]CCC)[O]CC([CH2][Sn]([c]2ccccc2)([c]2ccccc2)[c]2ccccc2)[O]1 (stereo unspecified) in this test?
Result: inactive
